Molecular target: T1, Rpn1^391-642(AKAA) (Saccharomyces cerevisiae, UniProt P38764 391-642, L430A | D431K | Q434A | Q435A)
T1 construct: ^15N-enriched in the titration; source: E. coli, purified
T1 sequence (looked up): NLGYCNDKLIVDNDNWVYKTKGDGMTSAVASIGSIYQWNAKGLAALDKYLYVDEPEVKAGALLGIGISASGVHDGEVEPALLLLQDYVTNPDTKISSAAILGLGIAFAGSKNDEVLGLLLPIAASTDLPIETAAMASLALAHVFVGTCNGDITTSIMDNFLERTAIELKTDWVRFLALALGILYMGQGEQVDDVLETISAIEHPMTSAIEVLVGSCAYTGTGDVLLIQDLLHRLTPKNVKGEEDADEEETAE
Assay: NMR titration; unlabeled Ubp6-UBL titrated into ^15N-Rpn1^391-642 or ^15N-Rpn1^391-642(AKAA); CSPs fitted to a single-site binding model, Kd as a global parameter; 50 mM HEPES, 50 mM KCl, 1 mM TCEP, pH 7.6; 21-25 °C
Conditions: both partners purified
measurementLabel: Kd (µM)

binder="Ubp6-UBL (domain or fragment, Saccharomyces cerevisiae, UniProt P43593 2-81, looked up, Ubp6, Saccharomyces cerevisiae, UniProt P43593, UBL domain, residues 2-81; Used ^15N-enriched or unlabeled; also called UBL domain of Ubp6; source: E. coli, purified) SGETFEFNIRHSGKVYPITLSTDATSADLKSKAEELTQVPSARQKYMVKGGLSGEESIKIYPLIKPGSTVMLLGTPDANL" datavalue=36
